Here the recorded viability, T/C is given for each entry.
System: 454973-116-R2-J3-PDC complex spheroid viability;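 note: spheroids exposed to drugs for seven days before measurement; percent viability relative to DMSO vehicle control wells taken as 100%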
Test: Anticancer human tumor 454973-116-R2-J3-PDC patient-derived pancreatic carcinoma cell line growth inhibition [POLQ]
Settings: second compound 3.16 µM; first compound 0.1 µM; stronger effect = lower value
Experimental: Multicellular complex tumor spheroid response to Polymerase (POL) inhibitors (novobiocin, ART-558, RP6685) in combination with a variety of drugs and investigational agents in selected tumor cell lines The POL inhibitors (novobiocin, ART-558, and RP6685) were evaluated both individually and in combination with standard of care and investigational anticancer small molecules within a complex spheroid model of solid tumors. . […]
Could you give me the number in %? Just the number is fine.

C#Cc1c(F)ccc2cc(O)cc(-c3ncc4c(N5CC6CCC(C5)N6)nc(OCC56CCCN5CC(F)C6)nc4c3F)c12 (stereo not given) + Cc1cccc(N(C)C(=O)C2C(O)CCN2c2nc(C)cc(C(F)(F)F)c2C#N)c1: 44.5
CCCS(=O)(=O)Nc1ccc(F)c(C(=O)c2c[nH]c3ncc(-c4ccc(Cl)cc4)cc23)c1F + Cc1cccc(N(C)C(=O)C2C(O)CCN2c2nc(C)cc(C(F)(F)F)c2C#N)c1: 110
CC1COCCN1c1cc(-c2ccnn2C)c2ccnc(-c3ccn[nH]3)c2n1 (stereo not given) + Nc1ccc(C#CCN(C(=O)Cc2ncc(C(F)(F)F)cc2C(F)(F)F)c2ccc(F)cc2)nn1: 55.6
CC1COCCN1c1cc(C2(O)CC3CCC(C2)O3)c2cnn(-c3ccn[nH]3)c2n1 (stereo not given) + COC1C(OC(N)=O)C(O)C(Oc2ccc3c(O)c(NC(=O)c4ccc(O)c(CC=C(C)C)c4)c(=O)oc3c2C)OC1(C)C: 73.5

Kindly consider the entry below.
[in] Specify viability, T/C for COc1ccc([C@@H](O)c2cc(-c3ncnc4cc(N5CCOCC5)ccc34)c(F)cc2Cl)nn1 + Nc1ccc(C#CCN(C(=O)Cc2ncc(C(F)(F)F)cc2C(F)(F)F)c2ccc(F)cc2)nn1 and stop.
[out] 107
